Recorded IC50 for compounds tested on cGMP-PDE prepared from the swine aeorta (Sus scrofa, UniProt A0A287B475), drawn from a number of studies.
IC50 strictly under 8 nM means 1.0; at 8 nM or over means 0.0.

Solved entries:
INSERT INTO assay_data (compoundstructurestring, group) VALUES
  ('O=C(O)/C=C/c1nc(NCc2ccc3c(c2)OCO3)c2cc(Cl)ccc2n1', 1.0),
  ('O=C(O)CNc1nc(NCc2ccc3c(c2)OCO3)c2cc(Cl)ccc2n1', 0.0),
  ('CN(C)c1ccc2nc(N3CCC(C(=O)O)CC3)nc(NCc3ccc4c(c3)OCO4)c2c1', 0.0),
  ('O=C(NCc1ccc2c(c1)OCO2)c1cc(Cl)ccc1NCc1ccncc1', 0.0),
  ('COc1cc2c(NCc3ccc4c(c3)OCO4)nc(N3CCC(C(=O)O)CC3)nc2c(OC)c1OC', 0.0),
  ('O=C(O)c1ccc(C(=O)Nc2ccc(Cl)cc2C(=O)NCc2ccc3c(c2)OCO3)cc1', 1.0),
  ('CCOC(=O)c1nc(NCc2ccc3c(c2)OCO3)c2cc(Cl)ccc2n1', 1.0),
  ('Nc1nc(NCc2ccc3c(c2)OCO3)c2cc(Cl)ccc2n1', 0.0),
  ('OC1CCN(c2nc(NCc3ccc4c(c3)OCO4)c3cc(Cl)ccc3n2)CC1', 0.0),
  ('COCCN(Cc1ccc2c(c1)OCO2)c1ncnc2c(OC)c(OC)c(OC)cc12', 0.0);

IC50 under 8 nM? Item: `COc1cc2ncnc(NCc3ccc4c(c3)OCO4)c2cc1SC`
0.0

IC50 under 8 nM? Item: `COc1ccc(CNC(=O)c2cc(C#N)c(OC)cc2NC(=O)[C@H]2CC[C@H](C(=O)O)CC2)cc1Cl`
1.0

IC50 under 8 nM? Item: `O=C1c2c(NC(=O)[C@H]3CC[C@H](C(=O)O)CC3)ccc(Br)c2CN1Cc1ccc2c(c1)OCO2`
1.0

IC50 under 8 nM? Item: `COc1cc(CNC(=O)c2cc(Cl)ccc2NC(=O)[C@H]2CC[C@H](C(=O)O)CC2)ccc1Cl`
1.0

----------
Recorded pIC50 for compounds tested on cGMP-PDE prepared from the swine aeorta (Sus scrofa), drawn from a number of studies.
pIC50: −log10 of the molar value.
Label Criterion not met if pIC50 falls below 8; label Criterion met in every other case.

Solved entries:
INSERT INTO results (compound, group) VALUES
  ('O=C(NCc1ccc2c(c1)OCO2)c1cc(-n2cccn2)ccc1NC(=O)[C@H]1CC[C@H](C(=O)O)CC1', 'Criterion met'),
  ('COc1cc2c(NCc3ccc4c(c3)OCO4)nc(C)nc2c(OC)c1OC', 'Criterion not met'),
  ('Clc1nc(NCc2ccc3c(c2)OCO3)c2cc(-n3ccnc3Cl)ccc2n1', 'Criterion not met'),
  ('NC(=O)c1ccc2ncnc(NCc3ccc4c(c3)OCO4)c2c1', 'Criterion not met');

Answer whether pIC50 of `COc1ccc(CNC(=O)c2cc(Br)c(OC)cc2NC(=O)[C@H]2CC[C@H](C(=O)O)CC2)cc1Cl` is greater than or equal to 8.
Criterion not met

Answer whether pIC50 of `COc1ccc(CNc2nc(N(C)CCCC(=O)O)nc3ccc(C#N)cc23)cc1Cl` is greater than or equal to 8.
Criterion met

Answer whether pIC50 of `CCOC(=O)CN(Cc1ccc2c(c1)OCO2)c1ncnc2c(OC)c(OC)c(OC)cc12` is greater than or equal to 8.
Criterion not met

Answer whether pIC50 of OCC1CCCN1c1nc(NCc2ccc3c(c2)OCO3)c2cc(Cl)ccc2n1 (stereo not drawn) is greater than or equal to 8.
Criterion met

Answer whether pIC50 of `CCOc1ccc2ncnc(NCc3ccc4c(c3)OCO4)c2c1` is greater than or equal to 8.
Criterion not met
